- testedTarget: HTRA2, O43464
- Sequence (O43464 355-458): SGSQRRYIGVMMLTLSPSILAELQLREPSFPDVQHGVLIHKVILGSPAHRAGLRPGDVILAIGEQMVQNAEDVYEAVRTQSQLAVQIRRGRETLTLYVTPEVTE
- experimentalDetails: holdup assay
- Design: key: below the threshold = too weak to quantify, mostly under pKd 3.1 to 4
- conditionNotes: plain residues with an end cap or a label only (N-terminal biotin on a linker: ado-ado)
quantity: pKd

Example cases with answers are listed next.
• PEKVSNTTVV [IGSF5, Q9NSI5] = below the threshold
• NKSEPFLTWL [WWTR1, Q9GZV5] = 4.51
• KSRPENGTVC [TMEM178B, H3BS89] = below the threshold
• LPPPESESKV [KCNJ9, Q92806] = below the threshold
• PLATCDETSI [SEMA4F, O95754] = below the threshold
• TKDKVQETQI [LRRC4, Q9HBW1] = below the threshold
• IQISELETNV [SLC1A7, O00341] = below the threshold
• PGKKPEDSRV [SLCO2B1, O94956] = below the threshold
• KKTPVSRSHL [SLC22A3, O75751] = below the threshold
• QLGSPTADLA [SIPA1, Q96FS4] = below the threshold

Look up pKd: SQPLLVHDDV [KIT, P10721]
below the threshold

Look up pKd: VKQYADVEGF [HNRNPK, P61978;P61978-2]
below the threshold

Look up pKd: PLPPEEESWV [GAS2L2, Q8NHY3]
3.96

Look up pKd: GDSSRKEYFI [GYPC, P04921]
4.1

Look up pKd: FHSIKQSTAV [CRHR1, P34998]
below the threshold

Look up pKd: EPAKETTTNV [SLC2A3, P11169]
below the threshold
